# target or test system: Adenosine receptor A1 (Homo sapiens); also: assay procedure not described here
# Sequence (P30542 whole entry): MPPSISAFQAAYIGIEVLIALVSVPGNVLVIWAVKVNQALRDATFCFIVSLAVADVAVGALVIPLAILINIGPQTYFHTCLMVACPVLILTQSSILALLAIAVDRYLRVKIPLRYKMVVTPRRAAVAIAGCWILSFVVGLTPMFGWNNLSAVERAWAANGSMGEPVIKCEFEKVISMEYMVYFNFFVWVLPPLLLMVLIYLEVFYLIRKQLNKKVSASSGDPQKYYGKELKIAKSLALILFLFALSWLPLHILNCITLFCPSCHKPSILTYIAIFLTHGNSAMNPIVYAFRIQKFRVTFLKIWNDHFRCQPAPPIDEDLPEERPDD
property label: AC50

Examples with answers:
{"columns": ["compound", "AC50"],
 "data": [
  ["COc1cc2nc(N(C)CCCNC(=O)C3CCCO3)nc(N)c2cc1OC (stereo unspecified) [ALFUZOSIN]", "> 30 µM"],
  ["Cc1c(C(=O)NN2CCCCC2)nn(-c2ccc(Cl)cc2Cl)c1-c1ccc(Cl)cc1 [RIMONABANT]", "> 30 µM"],
  ["CC[C@H]1OC(=O)[C@H](C)[C@@H](O[C@H]2C[C@@](C)(OC)[C@@H](O)[C@H](C)O2)[C@H](C)[C@@H](O[C@@H]2O[C@H](C)C[C@H](N(C)C)[C@H]2O)[C@](C)(O)C[C@@H](C)CN(C)[C@H](C)[C@@H](O)[C@]1(C)O [AZITHROMYCIN]", "> 30 µM"],
  ["CO[C@@H]1[C@@H](O[C@@H]2O[C@H](C)[C@@H](O[C@H]3C[C@@](C)(O)[C@@H](OC(=O)CC(C)C)[C@H](C)O3)[C@H](N(C)C)[C@H]2O)[C@@H](CC=O)C[C@@H](C)[C@@H](O)/C=C/C=C/C[C@@H](C)OC(=O)C[C@H]1OC(C)=O [JOSAMYCIN]", "> 10 µM"],
  ["CC(C)(C)NCC(O)COc1cccc2c1CCC(=O)N2 (stereo unspecified) [CARTEOLOL]", "> 10 µM"]
]}

Endpoint output: AC50 of CC[C@H]1[C@@H](O)[C@@H]2[C@H](CC[C@]3(C)[C@@H]([C@H](C)CCC(=O)O)CC[C@@H]23)[C@@]2(C)CC[C@@H](O)C[C@@H]12 [OBETICHOLIC ACID] . Value?
> 30 µM

# input compound: O=C(NCCN1CCOCC1)c1ccc(Cl)cc1 [MOCLOBEMIDE] ; wanted: its AC50
> 10 µM

Given the entry CN1C(C(=O)Nc2ccccn2)=C(O)c2sc(Cl)cc2S1(=O)=O [LORNOXICAM] , report its measured AC50.
> 30 µM

Data request, read-out AC50, for CS(=O)(=O)c1ccc(C2=C(c3ccccc3)C(=O)OC2)cc1 [ROFECOXIB]
> 30 µM
